TARGET OR TEST SYSTEM: GHS-R (Homo sapiens)
Sequence (Q92847 whole entry): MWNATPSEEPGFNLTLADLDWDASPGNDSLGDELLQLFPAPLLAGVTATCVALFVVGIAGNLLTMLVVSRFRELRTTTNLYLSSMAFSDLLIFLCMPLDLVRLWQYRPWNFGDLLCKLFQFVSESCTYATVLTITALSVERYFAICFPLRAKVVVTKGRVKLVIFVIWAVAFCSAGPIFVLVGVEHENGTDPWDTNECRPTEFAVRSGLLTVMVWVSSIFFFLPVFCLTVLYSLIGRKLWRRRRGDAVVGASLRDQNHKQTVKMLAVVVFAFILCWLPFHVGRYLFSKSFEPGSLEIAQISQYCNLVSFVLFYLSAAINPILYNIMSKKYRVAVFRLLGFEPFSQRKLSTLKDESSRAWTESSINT
TEST SUMMARY: GHS-R antagonist activity in a cell based assay (Table 4, Exemplary GHS-R Modulating Compounds)
pKi: −log10 of the molar value.
READOUT KIND: pKi

Input CCN(CC)CCCS(=O)(=O)N[C@H](CCc1ccccc1)c1nc(-c2ccc3nccn3c2)n[nH]1 [Compound 134] . Output pKi: 6.30 to 7.00
